Molecular target: UniProt:Q06187
Sequence (Q06187 whole entry): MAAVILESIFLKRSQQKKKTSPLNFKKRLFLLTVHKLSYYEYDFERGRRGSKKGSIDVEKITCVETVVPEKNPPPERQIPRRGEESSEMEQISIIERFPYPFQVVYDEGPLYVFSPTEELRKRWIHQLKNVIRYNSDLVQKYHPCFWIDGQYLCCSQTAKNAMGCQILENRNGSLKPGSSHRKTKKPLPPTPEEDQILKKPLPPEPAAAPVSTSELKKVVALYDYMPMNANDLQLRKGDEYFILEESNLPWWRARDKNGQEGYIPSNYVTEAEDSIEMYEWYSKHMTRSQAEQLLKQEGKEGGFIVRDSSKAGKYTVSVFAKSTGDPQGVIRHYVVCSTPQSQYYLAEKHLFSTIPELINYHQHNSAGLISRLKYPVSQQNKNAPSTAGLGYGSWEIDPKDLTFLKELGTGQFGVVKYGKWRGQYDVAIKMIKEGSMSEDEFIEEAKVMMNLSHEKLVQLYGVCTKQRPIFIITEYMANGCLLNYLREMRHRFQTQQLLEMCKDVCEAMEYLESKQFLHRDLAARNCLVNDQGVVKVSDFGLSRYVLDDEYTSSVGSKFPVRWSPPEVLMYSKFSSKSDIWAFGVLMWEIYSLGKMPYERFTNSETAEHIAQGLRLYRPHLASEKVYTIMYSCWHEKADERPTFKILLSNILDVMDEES
Test: Ramos B cell BTK occupancy assay (probe ELISA)
Assay type: cell-based
Parameters: endogenous in cells
Conditions: Ramos B cells, n=11; read-out: BTK occupancy IC50 (mean±SD)
Experimental Endpoint: pIC50
pIC50 is defined as minus the log10 of a concentration measured in mol/L.

Request: Tell me its pIC50 given C=CC(=O)N[C@H]1CCC[C@H]1NC(=O)c1sc2nccc3c2c1NC(=O)N3c1cnc(CC(C)C)cc1C (atropisomer, axis not shown) as the entry.
Result: 7.68

---

Assay: Phase 1 first-in-human study, plasma pharmacokinetics
Type: in vivo
Conditions: male, human, plasma, po, 105 mg, single 105 mg (3 × 35 mg) oral capsule, male fasted; read-out: tmax, median (min-max)
Description: Safety, tolerability, PK, and BTKO were assessed for six doses of compound of Formula (III) oral solution (4, 12, 36, 100, 200, 400 mg) in participants under fasted conditions. The SAD part comprised 10 cohorts of 8 participants each (FIG. 1). […] Safety, tolerability, and PK of a solid dose formulation of compound of Formula (III) were assessed in an additional male cohort (Cohort 10) that received 3×35 mg (105 mg) of compound of Formula (III) in the fasted state. […]
Experimental Endpoint: Tmax (h)
Write the number in h without appending the unit.

Request: Tell me its Tmax given C=CC(=O)N[C@H]1CCC[C@H]1NC(=O)c1sc2nccc3c2c1NC(=O)N3c1cnc(CC(C)C)cc1C (atropisomer, axis not shown) as the entry.
Result: 1.5
